# Assayed target: Follistatin (Homo sapiens)
# Assay details: FST protein binding to printed compounds – biochemical, small-molecule microarray, 635/667 nm fluorescence, primary screen (AID 1132)
# Stated conditions: 635 nm fluorescence, higher = more signal
Consider the following molecules; for each one, report its composite z-score.
One number for each entry.

Would you please look over these solved cases?
CO[C@H]1O[C@H](CO)[C@@H](OC(=O)Nc2cccc(F)c2)[C@H](OC(=O)Nc2ccccc2)[C@H]1OC(=O)Nc1ccccc1 : 1.35
O=C(CS)NCCCCCNC(=O)[C@H]1C[C@H]2C(=O)NCC(=O)N2[C@H]1c1cccc(OCCO)c1 : 0.952
COc1ccc([C@H]2C[C@H]3C(I)=C[C@@H]2C(=O)[C@]32CO2)cc1 : 0.762
C=CCOC(=O)[C@H]1[C@@H]2C(=O)O[C@@H](c3ccccc3)[C@@H](c3ccccc3)N2[C@@H](c2ccc(OCCOC(=O)[C@H]3C[C@H]4C(=O)N[C@@H](CCCCN(C)C)C(=O)N4[C@H]3c3cccc(OCCO)c3)cc2)[C@]12C(=O)Nc1ccc(I)cc12 : 1.35
[N-]=[N+]=Nc1ccccc1C[C@@]1(C(=O)N2CCCCC2)N=C(c2ccc(OCCCO)cc2)O[C@@H]1c1ccccc1N=[N+]=[N-] : 1.29

Respectfully, I request composite z-score for each entry included below.
1. COc1ccc(NN2C(C(O)c3ccc(N(C)C)cc3)C=CC3C(=O)N(C4CCCCC4)C(=O)C32)cc1 (configuration not stated)
2. [N-]=[N+]=Nc1ccccc1[C@H]1OC(c2ccc(OCCCO)cc2)=N[C@@]1(CCS(=O)(=O)c1ccccc1)C(=O)NCc1ccccc1

Solution:
[0.731, 1.34]

----------
# Assay details: blockers of DNA damage checkpoint Chk1 activation – imaging, HeLa, hydroxyurea, phospho-Chk1 nuclear intensity, primary screen (AID 1187); further: test concentration not given here
# Stated conditions: hydroxyurea-induced phospho-Chk1 immunofluorescence imaging, higher = more signal
Rule: z-score of -0.5 or more gives Fulfilled; anything lower gives Not fulfilled.

Cc1c(NC(=O)/C(C#N)=C/c2cccc([N+](=O)[O-])c2)c(=O)n(-c2ccccc2)n1C : Not fulfilled
CCOC(=O)C[C@H]1[C@H](OC(=O)c2ccc(-c3ccccc3)cc2)[C@@H](NC(=O)c2ccccc2)c2cc(OCCCO)ccc2N1C(=O)c1ccc2ccccc2n1 : Fulfilled
C#CCN1[C@@H](Cc2ccc(O)cc2)C(=O)O[C@H](Cc2ccccc2)[C@@H]1/C=C/C1CC1 : Not fulfilled
CCCC=C(CCC)[C@@H](NS(=O)(=O)c1ccc(Cl)cc1)c1ccc(C(=O)OC)cc1 : Fulfilled
C[N+](C)(C)CCCC[C@@H]1NC(=O)[C@@H]2C[C@H](C(=O)NCCCCCCNC(=O)CS)[C@H](c3ccc(O)cc3)N2C1=O : Fulfilled
COc1ccc([Si](C)(C)[C@@H]2[C@@H](CCO)O[C@]3(C(=O)N(Cc4cccc(N5CCOC5=O)c4)c4ccccc43)[C@H]2C)cc1 : Not fulfilled
CO[C@H]1O[C@H](CO)[C@@H](OC(=O)Nc2ccccc2)[C@@H]2OC(=O)[C@@H](Cc3ccc4ccccc4c3)C/C=C/C[C@H](Cc3ccc4ccccc4c3)C(=O)O[C@@H]12 : Not fulfilled
COCCCNC(=O)[C@@]1(Cc2ccccc2CN=[N+]=[N-])N=C(c2ccc(OCCCO)cc2)O[C@H]1c1ccccc1CN=[N+]=[N-] : Not fulfilled

Exercise: Given the entry COCCCNC(=O)[C@]1(Cc2ccccc2)N=C(c2ccc(OCCCO)cc2)O[C@@H]1c1ccccc1CN=[N+]=[N-] , answer whether its z-score meets or surpasses -0.5.
Solution: Not fulfilled

Exercise: Check if z-score >= -0.5 (inclusive). Item: CC1CC/C=C\[C@H]2OC34C=CCN(Cn5nnc6ccccc65)C(=O)[C@H]3N(CCCCCO)C(=O)[C@@H]4C2C(=O)O1 (stereo not given in full)
Solution: Fulfilled

Exercise: # check: z-score of [N-]=[N+]=Nc1ccccc1C[C@@]1(C(=O)N2CCCCC2)N=C(c2ccc(OCCCO)cc2)O[C@@H]1c1ccccc1 is greater than or equal to -0.5
Solution: Not fulfilled

Exercise: Identify whether the reported z-score of the following compound is -0.5 or greater: COC(=O)C(CC#Cc1ccc2c(c1)[C@]1(C(=O)N2)[C@H](c2ccccc2OCCO)N2[C@H](c3ccccc3)[C@H](c3ccccc3)OC(=O)[C@H]2[C@@H]1C(=O)O)C(=O)OC
Solution: Fulfilled

Exercise: Quick check: does CC(C)[C@@H](C(=O)O)n1cc(C2(O)CCCCC2)nn1 have z-score greater than or equal to -0.5?
Solution: Fulfilled

Exercise: z-score >= -0.5 for CCCCC(=C=CC[C@@H](O)c1ccc(CO)o1)CCO ?
Solution: Fulfilled

Exercise: Is z-score at least -0.5? Consider COC(=O)[C@H](Cc1ccccc1)N[C@H](/C=C/C1CC1)[C@@H](O)Cc1ccccc1
Solution: Fulfilled

----------
# Assayed target: Fibroblast growth factor 2 (Homo sapiens) (UniProt P09038)
# Sequence (P09038 whole entry, looked up): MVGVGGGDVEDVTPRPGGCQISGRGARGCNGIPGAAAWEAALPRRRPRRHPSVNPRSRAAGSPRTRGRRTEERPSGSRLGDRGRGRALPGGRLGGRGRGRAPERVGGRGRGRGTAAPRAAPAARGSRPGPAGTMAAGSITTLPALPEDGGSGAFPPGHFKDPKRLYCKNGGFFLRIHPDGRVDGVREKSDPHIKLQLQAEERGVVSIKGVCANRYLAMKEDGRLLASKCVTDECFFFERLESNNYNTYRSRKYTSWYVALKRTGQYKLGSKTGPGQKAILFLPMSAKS
# Assay details: basic fibroblast growth factor binding to printed compounds – biochemical, small-molecule microarray, 635/667 nm fluorescence, primary screen (AID 1133)
# Stated conditions: FGF2, fluorescence 635/667, higher = more signal
Please go through the items and note down their composite z-score.
One number for each entry.

Please go through the list and note composite z-score for each compound.
1. NC(=O)[C@@H]1[C@H]2C(=O)O[C@H](c3ccccc3)[C@H](c3ccccc3)N2[C@H](c2ccc(OCCO)cc2)[C@@]12C(=O)Nc1ccc(C#CC3=CCCCC3)cc12
2. COCCOC(=O)N1C(=O)[C@@]2(c3ccccc31)[C@H](c1ccc(OCCO)cc1)N1[C@H](c3ccccc3)[C@H](c3ccccc3)OC(=O)[C@H]1[C@@H]2C(=O)N1CCc2cc(OC)c(OC)cc2C1

Solution:
[0.413, 1.38]

Exercise: I am curious: what composite z-score value has been reported for COC(=O)[C@@]1(Cc2ccc(OC)cc2)[C@H]2c3cc(C(=O)N4CCCC4)n(CCc4ccc(O)c(O)c4)c3C[C@H]2CN1C(=O)c1ccccc1 ?
Solution: -0.736

----------
Record form. Attribute: composite z-score. Fill in for each entry.
# Assay details: probe aInhba binding on compound microarray – biochemical, small-molecule microarray, 635/667 nm fluorescence, primary screen (AID 1148);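 further: score merges 667nm spot fluorescence with signal-to-noise for antibody binding to printed compounds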
# Stated conditions: higher = more signal
One number for each entry.

COc1ccc([Si](C)(C)[C@H]2[C@H](CCn3cc([C@H](O)c4ccccc4)nn3)O[C@@]3(C(=O)N(C)c4ccccc43)[C@@H]2C)cc1 : -0.0221
NC(=O)[C@@H]1[C@H]2C(=O)O[C@H](c3ccccc3)[C@H](c3ccccc3)N2[C@H](c2ccc(OCCO)cc2)[C@@]12C(=O)Nc1ccc(C#CC3=CCCCC3)cc12 : 0.0047
NC(=O)[C@@]1(Cc2ccccc2)N=C(c2ccc(OCCCO)cc2)O[C@H]1c1ccccc1 : 0.196
C=C[C@H](C)[C@@H](OC(=O)Nc1ccc(SC)cc1)c1ccc(O)c2ccccc12 : -0.0375
CN1C(=O)C2C=CC(C(O)c3ccccc3)N(N3CCCCC3)C2C1=O (configuration not stated) : 0.0301
C#CCN1[C@@H](Cc2ccc(O)cc2)C(=O)O[C@H](Cc2ccccc2)[C@@H]1/C=C/C1CC1 : -0.224

Value sought for every listed molecule: composite z-score.
1. C=CCN1C(=O)[C@]2(Cc3ccccc3)N=C(c3ccc(OCCCO)cc3)O[C@@H]2c2ccccc21
2. O=C1OCC=C[C@H]2OC34C=CCN(CCN5CCOCC5)C(=O)[C@H]3N(CCO)C(=O)[C@@H]4[C@@H]12 (some centres not stated)
3. CC(=CC1CCCCC1)[C@@H](NC(=O)c1cccnc1)c1ccc(-c2ccccc2)cc1

Solution:
1: 0.13; 2: -0.359; 3: -0.0986

List reported composite z-score for each of these molecules:
1. CC(C)[C@@H](C(=O)O)n1cc(C2(O)CCCCC2)nn1
2. O=C1O[C@@H](c2ccccc2)[C@@H](c2ccccc2)N2[C@@H](c3ccccc3OCCO)[C@]3(C(=O)Nc4ccccc43)[C@@H](C(=O)O)[C@H]12

Solution:
[-0.101, -0.103]

State recorded composite z-score for all listed molecules.
1. C=C(/C(=C/C[C@H](OC(C)=O)c1ccc(OCCO)cc1)c1cc(C(=O)OC)ccc1OC)C(C)C
2. O=C1[C@H]2C=C(Br)[C@H](C[C@@H]2OCCCCCCO)[C@@]12CO2
3. CCCCN1CC=CC23O[C@@H]4/C=C\CCCOC(=O)C4[C@H]2C(=O)N(CCCCCO)[C@@H]3C1=O (some centres not stated)
4. CCOC(=O)C1=CC[C@@H](c2ccccc2)N(S(=O)(=O)c2ccc(C)cc2)[C@H]1c1ccc(CC)cc1

Solution:
0.0589
-0.024
-0.211
0.0018

Provide composite z-score for all items below, preserving their order.
1. C#CCOc1ccc(C[C@@H](C(=O)OC)N(CC#C)[C@@H](/C=C/C2CC2)[C@H](O)Cc2ccccc2)cc1
2. COCC(=C=CC[C@@H](O)c1ccc(OCCO)cc1)C[C@@H](O)c1ccccn1
3. C=CC[C@]1(C(=O)NCc2ccccc2)N=C(c2ccc(OCCCO)cc2)O[C@H]1c1ccccc1CN=[N+]=[N-]
4. CCCCCCc1nc(-c2ccc(-c3ccc(Cl)c(Cl)c3)o2)c(C)c2c1[Si](C(C)C)(C(C)C)OC2

Solution:
[-0.183, 0.0001, 0.682, -0.0933]

Please give composite z-score, item by item, for the list that follows.
1. O=C1C2C=CC(C(O)c3ccc4c(c3)OCO4)N(Nc3ccc([N+](=O)[O-])cc3)C2C(=O)N1c1ccccc1 (configuration not stated)
2. C=CC[C@]1(C(=O)N2CCOCC2)N=C(c2ccc(OCCCO)cc2)O[C@H]1c1ccccc1N=[N+]=[N-]

Solution:
-0.0178
0.122

Value sought for every listed molecule: composite z-score.
1. Cc1ccc(/C=C/C=O)cc1
2. O=C1C2C=CC(C(O)C=Cc3ccc([N+](=O)[O-])cc3)N(Nc3ccccc3F)C2C(=O)N1c1ccccc1 (configuration not stated)
3. CS(=O)(=O)CCOC(=O)C1=CC(CCCO)=CC(c2ccc(CN3CCCC3)cc2)N(Cc2cccc(OC(F)(F)F)c2)C=C1C(=O)OCCS(C)(=O)=O (configuration not stated)
4. O=C(CS)NCCCCCNC(=O)[C@H]1C[C@H]2C(=O)NCC(=O)N2[C@H]1c1cccc(OCCO)c1

Solution:
[-0.176, 0.095, 0.259, -0.217]

Batch lookup, composite z-score per entry.
1. C=C(CCCC)/C(=C/C[C@@H](OC(C)=O)c1cccc(OCCO)c1)c1cnc2ccccc2c1
2. CCOC(=O)C1=C[C@@H](C(C)C)N(S(=O)(=O)c2ccc(C)cc2)[C@H]1c1ccccc1F
3. COc1ccc([Si](C)(C)[C@@H]2[C@@H](CCn3cc(CCO)nn3)O[C@]3(C(=O)N(Cc4cccc(N5C(=O)c6cccc7cccc5c67)c4)c4ccccc43)[C@H]2C)cc1
4. COCCCNC(=O)[C@@]1(Cc2ccccc2)N=C(c2ccc(OCCCO)cc2)O[C@H]1c1ccccc1CN=[N+]=[N-]
5. COC(=O)C(CC#Cc1ccc2c(c1)[C@]1(C(=O)N2)[C@H](c2ccccc2OCCO)N2[C@H](c3ccccc3)[C@H](c3ccccc3)OC(=O)[C@H]2[C@@H]1C(=O)O)C(=O)OC
6. COC(=O)[C@@]1(Cc2ccccc2)[C@H]2c3cc(C(=O)N(C)C)n(CCc4c[nH]c5ccc(O)cc45)c3C[C@H]2CN1C(=O)c1ccccc1
7. CCCCC(=C=CC[C@H](O)c1cccc(OCCO)c1)C[C@H](O)c1ccccn1

Solution:
[-0.154, 0.0816, -0.0589, 0.389, 0.29, 0.0878, -0.101]
